Assay: Probe fluorescence intensity change with UCB:BSA
Type: binding
Conditions: 1:2 UCB:BSA, 500 nm
observed.property: ΔI/Io 1:2 UCB:BSA 500 nm
One number for each entry.

{"molecule": "L1P14 D6: FABP probe, mutations 14M 72V 117W vs SEQ ID NO: 2 (protein, listed as Rattus norvegicus, PEPTIDE (1)...(131) wild-type rat intestinal fatty acid binding protein) AFDGTWKVDRNENMEKFMEKMGINVVKRKLGAHDNLKLTITQEGNKFTVKESSNFRNIDVVFELGVDFAYSVADGTELTGTWTMEGNKLVGKFKRVDNGKELIAVREISGNELIQTWTYEGVEAKRIFKKE", "measured": "−0.33"}

Here is another molecule to look at.
# input molecule: L1P5 H9: FABP probe, mutations 14M 72I 117W vs SEQ ID NO: 2 (protein, listed as Rattus norvegicus, PEPTIDE (1)...(131) wild-type rat intestinal fatty acid binding protein) AFDGTWKVDRNENMEKFMEKMGINVVKRKLGAHDNLKLTITQEGNKFTVKESSNFRNIDVVFELGVDFAYSIADGTELTGTWTMEGNKLVGKFKRVDNGKELIAVREISGNELIQTWTYEGVEAKRIFKKE ; wanted: its ΔI/Io 1:2 UCB:BSA 500 nm
−0.34
